Assay: Oral bioavailability in Wistar rat at 10 mg/kg
Type: ADME, organism-based
Details: in vivo
// reported bioavailability for each item listed
The reply should be a number in %, with the unit left off.

In the examples that follow, each entry is paired with its recorded bioavailability.
Cc1ccnc(NCc2cc(-c3ccc(C[C@H](NC(=O)c4c(C)cc(C)cc4C)C(=O)O)cc3)on2)c1 | 11
Cc1ccnc(NCC2CCN(c3ccc(CC(NC(=O)c4c(C)cc(C)cc4C)C(=O)O)cc3)CC2)c1 (racemic) | 16

Kindly consider the entry below.
input: State its bioavailability: Cc1ccnc(NCc2coc(-c3ccc(C[C@H](NC(=O)c4c(C)cc(C)cc4C)C(=O)O)cc3)c2)c1
output: 26

====

// reported IC50 for each item listed
Target: Integrin alpha-V/beta-3 (Homo sapiens, UniProt P05106+P06756)
Sequence (P05106 27-788 limits assumed): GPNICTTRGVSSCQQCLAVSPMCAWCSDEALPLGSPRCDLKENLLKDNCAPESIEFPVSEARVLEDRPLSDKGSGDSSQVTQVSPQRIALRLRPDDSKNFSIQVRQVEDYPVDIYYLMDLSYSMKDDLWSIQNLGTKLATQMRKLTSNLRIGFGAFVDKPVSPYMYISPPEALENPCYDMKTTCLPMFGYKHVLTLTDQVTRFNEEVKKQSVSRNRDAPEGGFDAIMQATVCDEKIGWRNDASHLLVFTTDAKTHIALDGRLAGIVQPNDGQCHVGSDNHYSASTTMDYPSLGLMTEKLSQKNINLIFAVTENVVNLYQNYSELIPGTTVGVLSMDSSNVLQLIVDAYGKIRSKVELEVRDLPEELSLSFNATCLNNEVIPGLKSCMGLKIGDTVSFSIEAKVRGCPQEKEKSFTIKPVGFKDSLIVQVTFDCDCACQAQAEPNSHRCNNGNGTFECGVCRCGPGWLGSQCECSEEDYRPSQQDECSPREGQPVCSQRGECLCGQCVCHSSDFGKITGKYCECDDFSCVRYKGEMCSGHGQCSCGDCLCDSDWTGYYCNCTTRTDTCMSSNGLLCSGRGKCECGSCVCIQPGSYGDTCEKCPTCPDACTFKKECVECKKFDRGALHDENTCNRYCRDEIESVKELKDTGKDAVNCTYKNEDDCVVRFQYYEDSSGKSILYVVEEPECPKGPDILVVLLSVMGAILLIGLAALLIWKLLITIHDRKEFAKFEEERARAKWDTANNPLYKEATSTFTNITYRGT
Sequence (P06756 31-889 limits assumed): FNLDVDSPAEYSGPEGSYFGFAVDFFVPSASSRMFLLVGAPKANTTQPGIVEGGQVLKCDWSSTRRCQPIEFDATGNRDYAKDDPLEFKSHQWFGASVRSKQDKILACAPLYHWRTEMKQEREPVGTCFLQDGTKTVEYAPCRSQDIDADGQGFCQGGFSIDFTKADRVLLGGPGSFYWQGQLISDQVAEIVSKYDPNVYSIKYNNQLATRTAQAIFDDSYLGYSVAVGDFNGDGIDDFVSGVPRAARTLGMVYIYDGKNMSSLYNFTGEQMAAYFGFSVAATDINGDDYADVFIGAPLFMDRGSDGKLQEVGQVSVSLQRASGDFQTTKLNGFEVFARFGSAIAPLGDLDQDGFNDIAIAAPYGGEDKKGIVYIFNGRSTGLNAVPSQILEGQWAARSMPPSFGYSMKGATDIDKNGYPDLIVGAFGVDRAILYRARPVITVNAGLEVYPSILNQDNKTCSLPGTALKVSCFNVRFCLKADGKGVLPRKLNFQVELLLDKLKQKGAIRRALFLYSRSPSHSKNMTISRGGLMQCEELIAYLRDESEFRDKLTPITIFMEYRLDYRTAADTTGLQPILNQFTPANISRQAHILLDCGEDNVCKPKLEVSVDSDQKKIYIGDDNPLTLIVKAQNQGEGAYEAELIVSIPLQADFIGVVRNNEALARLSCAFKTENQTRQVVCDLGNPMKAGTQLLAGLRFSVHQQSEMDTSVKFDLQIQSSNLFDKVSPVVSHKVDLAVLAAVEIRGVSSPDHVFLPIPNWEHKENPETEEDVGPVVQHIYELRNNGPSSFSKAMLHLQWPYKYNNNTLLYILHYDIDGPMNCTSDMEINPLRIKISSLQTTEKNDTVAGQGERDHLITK
Sequence (P06756 891-1048 limits assumed): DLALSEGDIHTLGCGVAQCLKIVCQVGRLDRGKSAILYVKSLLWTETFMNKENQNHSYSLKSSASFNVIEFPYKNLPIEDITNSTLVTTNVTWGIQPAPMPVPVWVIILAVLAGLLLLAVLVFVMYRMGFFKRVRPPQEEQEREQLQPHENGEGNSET
Assay: Binding affinity to integrin […] receptor by ELISA
The reply should be a number in nM, with the unit left off.

In the examples that follow, each entry is paired with its recorded IC50.
Cc1ccnc(NCc2ccc(-c3ccc(CC(NC(=O)c4c(C)cc(C)cc4C)C(=O)O)cc3)cc2)c1 (racemic) | 2920
Cc1ccnc(NCc2coc(-c3ccc(C[C@H](NC(=O)c4c(C)cc(C)cc4C)C(=O)O)cc3)c2)c1 | 2420
Cc1ccnc(NCc2cc(-c3ccc(C[C@H](NC(=O)c4c(C)cc(C)cc4C)C(=O)O)cc3)on2)c1 | 261
Cc1ccnc(NCc2sccc2-c2ccc(C[C@H](NC(=O)c3c(C)cc(C)cc3C)C(=O)O)cc2)c1 | 16000
Cc1cc(C)c(C(=O)N[C@@H](CNC(=O)CO[C@H]2C[C@H](CNc3ccccn3)N(C(=O)CC(C)(C)C)C2)C(=O)O)c(C)c1 | 16000
Cc1ccnc(NCc2cccc(-c3ccc(CC(NC(=O)c4c(C)cc(C)cc4C)C(=O)O)cc3)c2)c1 (racemic) | 890
Cc1ccnc(NCc2csc(-c3ccc(C[C@H](NC(=O)c4c(C)cc(C)cc4C)C(=O)O)cc3)c2)c1 | 1730

Kindly consider the entry below.
input: State its IC50: Cc1ccnc(NCC2CCN(c3ccc(CC(NC(=O)c4c(C)cc(C)cc4C)C(=O)O)cc3)CC2)c1 (racemic)
output: 84

====

Target: Integrin alpha-V/beta-3 (Homo sapiens, UniProt P05106+P06756)
Assay: Binding affinity to integrin […] receptor by ELISA
Type: protein-complex assay
// reported IC50 for each item listed
The reply should be a number in nM, with the unit left off.

Cc1ccnc(NCC2CC(=O)N(c3ccc(C[C@H](NC(=O)c4c(C)cc(C)cc4C)C(=O)O)cc3)C2)c1 (some centres undefined) | 319
Cc1ccnc(NCc2cn(-c3ccc(C[C@H](NC(=O)c4c(C)cc(C)cc4C)C(=O)O)cc3)nn2)c1 | 100
Cc1ccnc(NCc2cnc(-c3ccc(C[C@H](NC(=O)c4c(C)cc(C)cc4C)C(=O)O)cc3)s2)c1 | 472

Kindly consider the entry below.
input: State its IC50: Cc1cc(C)c(C(=O)N[C@@H](Cc2ccc(OCCCNc3ccccn3)cc2)C(=O)O)c(C)c1
output: 703

====

Target: Integrin alpha-IIb/beta-3 (Homo sapiens, UniProt P05106+P08514)
Sequence (P05106 27-788 limits assumed): as the sequence (P05106 27-788 limits assumed) above
Sequence (P08514 32-887 limits assumed): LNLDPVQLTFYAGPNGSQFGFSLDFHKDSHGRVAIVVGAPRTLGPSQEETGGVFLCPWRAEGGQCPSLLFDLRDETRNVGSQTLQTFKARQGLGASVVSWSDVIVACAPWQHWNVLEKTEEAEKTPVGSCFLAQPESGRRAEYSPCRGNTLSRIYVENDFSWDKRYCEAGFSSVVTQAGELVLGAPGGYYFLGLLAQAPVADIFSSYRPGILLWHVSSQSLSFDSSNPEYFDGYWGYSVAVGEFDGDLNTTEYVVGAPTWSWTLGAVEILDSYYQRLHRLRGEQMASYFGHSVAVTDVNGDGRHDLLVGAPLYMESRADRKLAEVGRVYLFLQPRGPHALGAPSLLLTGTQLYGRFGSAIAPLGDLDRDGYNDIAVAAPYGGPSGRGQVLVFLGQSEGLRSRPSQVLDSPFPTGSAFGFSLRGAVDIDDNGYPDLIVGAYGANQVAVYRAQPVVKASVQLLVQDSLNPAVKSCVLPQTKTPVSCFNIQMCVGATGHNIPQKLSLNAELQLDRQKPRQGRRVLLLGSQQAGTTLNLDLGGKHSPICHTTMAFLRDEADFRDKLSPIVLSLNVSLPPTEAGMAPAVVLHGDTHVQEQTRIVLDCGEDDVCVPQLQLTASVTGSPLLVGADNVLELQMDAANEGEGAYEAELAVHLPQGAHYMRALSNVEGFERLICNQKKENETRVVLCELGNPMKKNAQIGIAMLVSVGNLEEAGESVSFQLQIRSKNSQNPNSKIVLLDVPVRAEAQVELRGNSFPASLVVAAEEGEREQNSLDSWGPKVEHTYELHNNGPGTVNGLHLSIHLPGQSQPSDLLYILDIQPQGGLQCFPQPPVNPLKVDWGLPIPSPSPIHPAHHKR
Sequence (P08514 891-1039 limits assumed): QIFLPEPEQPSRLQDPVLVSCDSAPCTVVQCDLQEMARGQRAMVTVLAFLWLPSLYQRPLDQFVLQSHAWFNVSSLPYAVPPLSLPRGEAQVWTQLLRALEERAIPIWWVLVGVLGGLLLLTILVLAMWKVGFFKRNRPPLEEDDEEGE
Assay: Binding affinity to integrin alpha2bbeta3 receptor by ELISA
recordedMetric: pIC50
Scale for pIC50: -log10 of concentration given in mol/L; no unit attached.

Cc1ccnc(NCc2cn(-c3ccc(C[C@H](NC(=O)c4c(C)cc(C)cc4C)C(=O)O)cc3)nn2)c1 | 4.05
Cc1ccnc(NCc2ccc(-c3ccc(CC(NC(=O)c4c(C)cc(C)cc4C)C(=O)O)cc3)cc2)c1 (racemic) | 3.78
Cc1ccnc(NCc2cc(-c3ccc(C[C@H](NC(=O)c4c(C)cc(C)cc4C)C(=O)O)cc3)on2)c1 | 3.93

input: Provide measured pIC50 on Integrin alpha-IIb/beta-3 (Homo sapiens, UniProt P05106+P08514) for Cc1ccnc(NCc2cccc(-c3ccc(CC(NC(=O)c4c(C)cc(C)cc4C)C(=O)O)cc3)c2)c1 (racemic) please.
output: 3.74

input: Provide measured pIC50 on Integrin alpha-IIb/beta-3 (Homo sapiens, UniProt P05106+P08514) for Cc1ccnc(NCc2csc(-c3ccc(C[C@H](NC(=O)c4c(C)cc(C)cc4C)C(=O)O)cc3)c2)c1 please.
output: 4.01
